# experimental.system: ROCK2 (human)
# assay.explanation: Inhibition of ROCK2 Kinase Activity
# condition.parameters: concentration not given here
parameter.measured: inhibition (%)

Reference set, count: 5
1. C=CCC(NC)[C@H]1CC[C@H](C(=O)Nc2ccncc2)CC1 (stereo partly specified); 45
2. NN(CC1CCCCC1)[C@H]1CC[C@H](C(=O)Nc2ccncc2)CC1; 40
3. NN(CCc1ccccc1)[C@H]1CC[C@H](C(=O)Nc2ccncc2)CC1; 46
4. NN(Cc1ccccc1)[C@H]1CC[C@H](C(=O)Nc2ccncc2)CC1; 61
5. C=CC[C@H](N)[C@H]1CC[C@H](C(=O)Nc2ccncc2)CC1; 63

[P] CCCCCCCCN(N)[C@H]1CC[C@H](C(=O)Nc2ccncc2)CC1
[Q] C=CCC(N)[C@H]1CC[C@H](C(=O)Nc2ncnc3[nH]cnc23)CC1 (stereo partly specified)
[R] CC(C)CCN(N)[C@H]1CC[C@@H](C(=O)Nc2ccncc2)CC1
*Q* Order by inhibition, ascending. List each label, following the requested order.
*A* Q, R, P
(Q: 0%, R: 13%, P: 53%)

====

# experimental.system: ROCK2 (human) (UniProt O75116)
# Sequence (O75116 whole entry, looked up): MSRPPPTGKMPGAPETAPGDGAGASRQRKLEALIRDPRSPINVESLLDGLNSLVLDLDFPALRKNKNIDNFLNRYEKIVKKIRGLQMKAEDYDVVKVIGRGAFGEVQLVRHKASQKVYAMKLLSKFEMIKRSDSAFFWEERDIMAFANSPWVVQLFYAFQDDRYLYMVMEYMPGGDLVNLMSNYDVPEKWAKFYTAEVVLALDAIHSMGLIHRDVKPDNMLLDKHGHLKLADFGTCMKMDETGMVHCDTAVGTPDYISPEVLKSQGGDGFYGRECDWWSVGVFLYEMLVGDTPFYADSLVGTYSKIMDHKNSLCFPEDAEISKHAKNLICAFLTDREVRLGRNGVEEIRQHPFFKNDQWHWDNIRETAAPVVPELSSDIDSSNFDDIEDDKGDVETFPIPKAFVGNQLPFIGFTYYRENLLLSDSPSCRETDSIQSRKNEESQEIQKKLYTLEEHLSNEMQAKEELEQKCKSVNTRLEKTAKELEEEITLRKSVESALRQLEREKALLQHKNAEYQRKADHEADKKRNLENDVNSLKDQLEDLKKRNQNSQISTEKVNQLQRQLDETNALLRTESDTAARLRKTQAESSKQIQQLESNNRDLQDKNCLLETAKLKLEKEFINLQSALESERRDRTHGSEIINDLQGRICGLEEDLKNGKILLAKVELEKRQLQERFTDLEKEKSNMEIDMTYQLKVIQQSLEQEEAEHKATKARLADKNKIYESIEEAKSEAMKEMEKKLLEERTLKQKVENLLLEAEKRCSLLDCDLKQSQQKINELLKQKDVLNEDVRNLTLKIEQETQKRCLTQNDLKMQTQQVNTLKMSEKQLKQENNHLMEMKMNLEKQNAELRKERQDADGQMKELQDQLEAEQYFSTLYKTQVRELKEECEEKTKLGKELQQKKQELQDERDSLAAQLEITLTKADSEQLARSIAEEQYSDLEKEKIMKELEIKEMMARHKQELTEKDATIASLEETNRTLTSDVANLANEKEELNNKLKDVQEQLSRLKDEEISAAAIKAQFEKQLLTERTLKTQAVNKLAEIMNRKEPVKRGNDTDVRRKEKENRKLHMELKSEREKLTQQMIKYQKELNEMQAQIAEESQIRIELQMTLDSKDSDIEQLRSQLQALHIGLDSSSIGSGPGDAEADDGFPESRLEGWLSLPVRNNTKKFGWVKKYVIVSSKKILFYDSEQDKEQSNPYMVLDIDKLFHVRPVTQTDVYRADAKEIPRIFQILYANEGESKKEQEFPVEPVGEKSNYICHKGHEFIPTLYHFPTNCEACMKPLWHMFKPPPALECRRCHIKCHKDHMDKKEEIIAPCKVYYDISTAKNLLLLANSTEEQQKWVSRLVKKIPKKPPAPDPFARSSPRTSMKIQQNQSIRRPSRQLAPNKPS
parameter.measured: pIC50
Note on units: pIC50 is unitless, being -log10 of a concentration expressed in mol/L.

*Q* # returns recorded pIC50 (system: ROCK2 (human) (UniProt O75116)) for C=CC[C@@H](N)[C@H]1CC[C@H](C(=O)Nc2ccncc2)CC1
*A* 5.72

====

# experimental.system: UniProt O75116
# assay.explanation: Inhibition of ROCK2 Kinase Activity
# condition.parameters: concentration not given here
parameter.measured: inhibition (%)

1) CN(N)[C@H]1CC[C@H](C(=O)Nc2ccncc2)CC1; 63
2) CCCN(N)[C@H]1CC[C@H](C(=O)Nc2ccncc2)CC1; 45
3) NN(CC(c1ccccc1)c1ccccc1)[C@H]1CC[C@H](C(=O)Nc2ccncc2)CC1; 45
